Tested on: rodent lifetime carcinogenesis bioassay, tumor incidence TD50
Test: carcinogenic potency in animals, long-term in vivo studies, CPDB compilation (AID 1745844)
Conditions: mouse; strain B6C3F1; males; in feed; site: urinary bladder; lesion: squamous-cell carcinoma; dosed 96 weeks; study length 96 weeks

| MOL | UNITS_LABEL | TD50 |
| --- | --- | --- |
| O=c1cc[nH]c(=O)[nH]1 | mg/kg/day | 25700 |

* * *

System: rodent lifetime carcinogenesis bioassay, tumor incidence TD50
Experiment: carcinogenic potency in animals, long-term in vivo studies, CPDB compilation (AID 1745844)
Conditions: rat; strain Sprague-Dawley; females; inhaled; site: any site (literature study); lesion: several types; types named in the paper; dosed 25 weeks; study length 127 weeks

| MOL | SYSTEM_UNDER_TEST | TD50 (mg/kg/day) |
| --- | --- | --- |
| C=CCl | rodent lifetime carcinogenesis bioassay, tumor incidence TD50 | 309 |

Source: PubChem BioAssay AID1745844
